- assay-comment: yeast display, Sf9 membrane polyspecificity reagent, FACS + sequencing; frameworks hold sequencing errors
reported-property: polyreactivity (PSR sort gate)

QVQLVETGGGLVQAGGSLRLSCAASGRTYSTYAMGWYRQAPGKERDLVADISWRGAPTYYADSVKGRFTISRDNAKNTVYLQIISQKPEYTAVYYFAAAPYGYLRYEYWGLGTQVTVSS
high polyreactivity
QVQLVESGGGLVQARGSLRLSCAASGSIIGGNAMGWYRQAPGKERELVATISWSGGSTYYADSVKGRFTISRDKAKNTVYLQMNSLKPEDTAVYYCAKTPYRRYRYGGYTYRTYEYWGQGTQVTVSS
low polyreactivity
QVQLQEGGGLVQAGGSLRLSCPASGYISSRPAMGCYRQAPGKERAFVATIADGTSTYYADSVKCRFTISRDNAKNTVYLQMNSLKPEDTEVYYCAAAYNTEFYLSYWGQGTQVTVSS
high polyreactivity
QVQLGESGGGLVQAGGSLRLSCAASGRISGYAMGWYRQAPGKERELVAAISKSAARTYYADSVKGRFTISRDNAKNTVYLQMNSLKPEDTAVYYCAADKPYRYDYWGQGTQVTLSS
high polyreactivity
QVQLVESGGGLVQAGGSLRLSCAASGRTFGRYAMGWYRQAPGKERELVAGISGSVGITYYADSVKGRFTISRDNAKNTVYLQMNSLKPEDTAVYYCAVVARAGHKYDYWGQGTQVTVSS
low polyreactivity

IN: // returns reported polyreactivity (PSR sort gate) for input `QVQLQESGGGLVQAGGSLRLTCAASGNISVTGFMGCYRQAPGKERELVASIGIGGTTYYADSVKGRFSISRDNAKNTVYLEMHSLKPEDTAVYYCAARYLYYAYSYWGQGTQVTVSS`
OUT: low polyreactivity
